Molecular target: T1, interleukin-23 receptor (IL-23R), Q5VWK5
T1 chain: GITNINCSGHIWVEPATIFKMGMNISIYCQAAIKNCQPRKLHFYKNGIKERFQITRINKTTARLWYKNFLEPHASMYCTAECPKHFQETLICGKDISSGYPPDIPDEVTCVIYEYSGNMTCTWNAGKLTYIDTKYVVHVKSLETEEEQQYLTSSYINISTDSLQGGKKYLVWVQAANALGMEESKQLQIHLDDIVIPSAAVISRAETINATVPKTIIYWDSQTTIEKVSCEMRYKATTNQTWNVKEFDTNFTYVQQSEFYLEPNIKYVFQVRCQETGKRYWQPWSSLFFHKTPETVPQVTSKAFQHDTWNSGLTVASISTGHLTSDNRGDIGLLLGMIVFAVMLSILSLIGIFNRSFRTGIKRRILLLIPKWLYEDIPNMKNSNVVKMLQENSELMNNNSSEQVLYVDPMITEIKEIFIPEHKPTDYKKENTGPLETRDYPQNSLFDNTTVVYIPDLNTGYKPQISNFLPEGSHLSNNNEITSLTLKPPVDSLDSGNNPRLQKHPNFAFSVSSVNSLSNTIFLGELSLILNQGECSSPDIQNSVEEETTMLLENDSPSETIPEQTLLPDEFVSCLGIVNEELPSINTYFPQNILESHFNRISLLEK
Experiment: cell-based or functional assay
Non-standard residues stand in square brackets, D forms with d. No end group written: not given here. Trp(7-(3-AcNH-Ph)) = CC(=O)Nc1cccc(-c2cccc3c(C[C@H](N)C(=O)O)c[nH]c23)c1; 2Nal(6-OH) = N[C@@H](Cc1ccc2cc(O)ccc2c1)C(=O)O; AEF = NCCOc1ccc(C[C@H](N)C(=O)O)cc1; 3Pal = N[C@@H](Cc1cccnc1)C(=O)O; Pen = CC(C)(S)[C@H](N)C(=O)O; αMeC = C[C@](N)(CS)C(=O)O; Thp = NC1(C(=O)O)CCOCC1; Abu = CC[C@H](N)C(=O)O; Sar = CNCC(=O)O
Assay metric: PBMC pSTAT3 IC50

Q) # PBMC pSTAT3 IC50 lookup, item [Abu]NTWQC[AEF][2Nal(6-OH)][Thp]EN[3Pal][Sar] (ends and bridges not checked) [SEQ ID NO: 98]
A) < 10 pM

Q) // query: R[Abu]NTWK(Ac)[αMeC][AEF][2Nal(6-OH)][Thp]K(Ac)N[3Pal][Sar] (ends and bridges not checked) [SEQ ID NO: 29]
A) < 0.1 nM

Q) // query: R[Pen]NTWK(Ac)[Pen][AEF][2Nal(6-OH)][Thp]EN[3Pal][Sar] (not fully specified (bridges); ends and bridges not checked) [SEQ ID NO: 74]
A) < 0.1 nM

Q) // query: R[Abu]NT[Trp(7-(3-AcNH-Ph))]K(Ac)[αMeC][AEF][2Nal(6-OH)][Thp]EN[3Pal][Sar] (ends and bridges not checked) [SEQ ID NO: 6]
A) < 0.1 nM
